# Test Description: AUC in rat at 1 mg/kg, iv
# Type: ADME, organism-based
# Experimental Conditions: in vivo
Experimental Readout: AUC (µM·h)
Write the answer as a number in µM·h, unit excluded.

Query :: State its AUC for this molecule: CC1(C)OCCn2c1nc(-c1cn(Cc3ccc(F)cc3)cn1)c(O)c2=O
Result :: 0.353

Next:
Query :: State its AUC for this molecule: CC1(C)OCCn2c1nc(-c1ncc(Cc3ccc(F)cc3)[nH]1)c(O)c2=O
Result :: 4.55

Query :: State its AUC for this molecule: CC1(C)OCCn2c1nc(-c1ncn(Cc3ccc(F)cc3)n1)c(O)c2=O
Result :: 0.872

Query :: State its AUC for this molecule: Cn1c(Cc2ccc(F)cc2)cnc1-c1nc2n(c(=O)c1O)CCOC2(C)C
Result :: 3.92
